Test system: Echinochloa crus-galli (ECHCG)
Test: Pre-emergence herbicidal activity, glasshouse pot test
Assay type: in vivo
Conditions: Echinochloa crus-galli, 312 h; pre-emergence, Rate 250 g/ha, evaluated after 13 days; read-out: Pre-emergence activity ECHCG (100=total damage to plant; 0=no damage to plant)
Item-by-item account of pest or weed control at 250 g/ha
Just the number in %, nothing appended.

As a guide, the following entries are already answered.
compound-string	experimental-target	pest or weed control at 250 g/ha / %
CC1(C)OC(C)(C)C(O)=C(c2cc(Oc3nc4ccccc4s3)ccc2C2CC2)C1=O	Echinochloa crus-galli (ECHCG)	100
CC1(C)OC(C)(C)C(O)=C(c2cc(Oc3ccc(F)cc3)ccc2C2CC2)C1=O	Echinochloa crus-galli (ECHCG)	100
CC1(C)OC(C)(C)C(O)=C(c2cc(Oc3ccc(Br)cc3F)ccc2C2CC2)C1=O	Echinochloa crus-galli (ECHCG)	100
CC1(C)OC(C)(C)C(O)=C(c2cc(Oc3nc4ccc(Cl)cc4s3)ccc2C2CC2)C1=O	Echinochloa crus-galli (ECHCG)	90

Next molecule, pest or weed control at 250 g/ha to be filled in.
**Q:** Recall the reported pest or weed control at 250 g/ha of "CCc1ccc(Oc2ncc(Cl)cc2C(F)(F)F)cc1C1=C(O)[C@H]2CC[C@H](C2)C1=O" on Echinochloa crus-galli (ECHCG) and write it down.
**A:** 100

---

Test system: Echinochloa crus-galli (ECHCG)
Assay: Pre-emergence herbicidal activity, glasshouse pot test
Format: in vivo
Details: Echinochloa crus-galli, 312 h; pre-emergence, Rate 250 g/ha, evaluated after 13 days; read-out: Pre-emergence activity ECHCG (100=total damage to plant; 0=no damage to plant)
Item-by-item account of pest or weed control at 250 g/ha
Just the number in %, nothing appended.

As a guide, the following entries are already answered.
compound-string	observable	observed-result
CC1(C)OC(C)(C)C(O)=C(c2cc(Oc3ncc(Cl)cc3Cl)ccc2C2CC2)C1=O	pest or weed control at 250 g/ha	100
CC1(C)OC(C)(C)C(O)=C(c2cc(Oc3ccc(Br)cc3Cl)ccc2C2CC2)C1=O	pest or weed control at 250 g/ha	100
CC1(C)OC(C)(C)C(O)=C(c2cc(Oc3nc4ccc(C(F)(F)F)cc4s3)ccc2C2CC2)C1=O	pest or weed control at 250 g/ha	70

Next compound, pest or weed control at 250 g/ha to be filled in.
**Q:** Please give the documented pest or weed control at 250 g/ha of "CC1(C)OC(C)(C)C(O)=C(c2cc(Oc3cnc4cc(F)ccc4n3)ccc2C2CC2)C1=O"
**A:** 90

---

Tested on: Alopecurus myosuroides (ALOMY)
Experiment: Pre-emergence herbicidal activity, glasshouse pot test
Format: in vivo
Settings: Alopecurus myosuroides, 312 h; Rate 250 g/ha; pre-emergence spray; evaluated after 13 days; read-out: Pre-emergence activity ALOMY (100=total damage to plant; 0=no damage to plant)
Item-by-item account of pest or weed control at 250 g/ha
Just the number in %, nothing appended.

**Q:** Please give the documented pest or weed control at 250 g/ha of "CCc1ccc(Oc2cccc(Br)c2)cc1C1=C(O)C(C)(C)OC(C)(C)C1=O"
**A:** 30

**Q:** Please give the documented pest or weed control at 250 g/ha of "CCc1ccc(Oc2ccc(F)cc2[N+](=O)[O-])cc1C1=C(O)C(C)(C)OC(C)(C)C1=O"
**A:** 0

**Q:** Please give the documented pest or weed control at 250 g/ha of "CCc1ccc(Oc2ccc(Br)cc2)cc1C1=C(O)CCCC1=O"
**A:** 40

**Q:** Please give the documented pest or weed control at 250 g/ha of "CCc1ccc(Oc2nc(F)c(F)c(Cl)c2F)cc1C1=C(O)C(C)(C)OC(C)(C)C1=O"
**A:** 30
